Where do these numbers come from? They come from patent US11084829B2.

pIC50: −log10 of the molar value.
pIC50 tested on USP7 (Homo sapiens, UniProt Q93009): recorded values
Sequence (Q93009 whole entry): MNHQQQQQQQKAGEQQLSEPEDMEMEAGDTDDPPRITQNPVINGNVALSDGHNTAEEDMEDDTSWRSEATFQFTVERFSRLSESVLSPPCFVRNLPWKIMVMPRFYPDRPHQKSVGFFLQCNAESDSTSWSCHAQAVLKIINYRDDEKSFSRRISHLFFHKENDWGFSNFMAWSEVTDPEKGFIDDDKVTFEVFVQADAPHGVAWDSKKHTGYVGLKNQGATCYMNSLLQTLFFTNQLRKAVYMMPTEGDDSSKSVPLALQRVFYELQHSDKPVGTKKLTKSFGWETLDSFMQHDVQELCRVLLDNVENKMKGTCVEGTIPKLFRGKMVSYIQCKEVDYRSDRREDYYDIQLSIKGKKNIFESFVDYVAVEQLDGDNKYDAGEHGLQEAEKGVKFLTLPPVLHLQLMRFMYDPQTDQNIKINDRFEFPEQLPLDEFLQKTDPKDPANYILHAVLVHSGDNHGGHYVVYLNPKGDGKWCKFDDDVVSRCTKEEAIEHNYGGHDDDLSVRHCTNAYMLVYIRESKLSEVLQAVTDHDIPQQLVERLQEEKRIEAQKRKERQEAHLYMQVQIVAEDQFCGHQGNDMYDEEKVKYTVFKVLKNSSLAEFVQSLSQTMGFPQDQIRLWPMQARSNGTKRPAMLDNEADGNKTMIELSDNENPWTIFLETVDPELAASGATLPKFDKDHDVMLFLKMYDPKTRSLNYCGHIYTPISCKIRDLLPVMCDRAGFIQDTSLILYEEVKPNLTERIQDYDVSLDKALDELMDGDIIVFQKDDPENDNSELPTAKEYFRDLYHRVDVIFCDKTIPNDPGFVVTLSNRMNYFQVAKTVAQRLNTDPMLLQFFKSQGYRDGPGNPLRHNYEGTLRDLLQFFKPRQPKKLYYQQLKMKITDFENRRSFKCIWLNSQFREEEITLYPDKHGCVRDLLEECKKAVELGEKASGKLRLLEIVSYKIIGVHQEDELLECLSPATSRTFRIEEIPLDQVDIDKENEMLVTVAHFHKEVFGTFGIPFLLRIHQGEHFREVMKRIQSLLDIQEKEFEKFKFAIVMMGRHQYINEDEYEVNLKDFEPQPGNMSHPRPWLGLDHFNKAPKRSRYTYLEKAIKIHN

Observe how each entry below is paired with its result.
Cc1cc(Cl)cc(-c2ncnc3cc(CN4C(=O)CCC4(C)C#N)sc23)c1CC1CNCC(C)(C)O1 (stereo not shown)    7.00 to 8.00
Cc1cc(Cl)cc(-c2ncnc3cc(CN4C(=O)COC4=O)sc23)c1CN1C[C@@H](C)NC[C@@H]1C    7.00 to 8.00
Cc1cc(Cl)cc(-c2ccnc3cc(CN4C(=O)CCC4=O)sc23)c1CN1CCNCC1    7.00 to 8.00
Cc1cc(Cl)cc(-c2ccnc3cc(CN4C(=O)CCC4=O)sc23)c1CN1CC2CC1CN2 (stereo not shown)    > 8.00
Cc1cc(Cl)cc(-c2ncnc3cc(CN4C(=O)C5CC5C4=O)sc23)c1CC1CNC(C)(C)CO1 (stereo not shown)    7.00 to 8.00

# input So what does the record say about pIC50 for Cc1cc(Cl)cc(-c2ncnc3cc(CN4C(=O)CCN(CCF)C4=O)sc23)c1CN1[C@@H](C)CNC[C@@H]1C ?
# output > 8.00

# input Also check Cc1cc(Cl)cc(-c2ccnc3cc(CN4C(=O)CCC4=O)sc23)c1CN1CCNC(C)(C)C1
# output > 8.00

====

experimental_target: USP7 (Homo sapiens, UniProt Q93009)
assay_explanation: USP7 inhibitory potency (IC50)
Type: biochemical
pIC50: −log10 of the molar value.
assay_endpoint: pIC50

Cn1ccc(=O)n(Cc2cc3nccc(-c4cc(Cl)cc(Cl)c4CC4CNCCO4)c3s2)c1=O (stereo not shown)    > 8.00
Cc1cc(Cl)cc(-c2ncnc3cc(Cn4c(=O)c(F)cn(C(C)C)c4=O)sc23)c1CC1CNCCO1 (stereo not shown)    > 8.00
Cc1cc(Cl)cc(-c2ccnc3cc(CN4C(=O)CCC4=O)sc23)c1CN1CCNCC1C(F)F (stereo not shown)    7.00 to 8.00

Okay, next one:
# input So what does the record say about pIC50 for Cc1cc(Cl)cc(-c2ncnc3cc(CN4C(=O)N(C)C(C)(C)C4=O)sc23)c1C[C@@H]1CNCC(C)(C)O1 ?
# output > 8.00

====

IC50 tested on USP7 (Homo sapiens, UniProt Q93009): recorded values

Observe how each entry below is paired with its result.
Cc1cc(Cl)cc(-c2ncnc3cc(CN4C(=O)C5CC5C4=O)sc23)c1C[C@@H]1CNCCO1 (stereo partly drawn)    < 10 nM
Cc1cc(Cl)cc(-c2ccnc3cc(CN4C(=O)CCC4=O)sc23)c1CN1[C@@H](C)CN(C(C)C)C[C@@H]1C    < 10 nM
Cc1cc(Cl)cc(-c2ncnc3cc(CN4C(=O)NCC(C)C4=O)sc23)c1C[C@@H]1CNCCO1 (stereo partly drawn)    < 10 nM
Cc1cc(Cl)cc(-c2ncnc3cc(CN4C(=O)OC[C@@H]4CF)sc23)c1C[C@@H]1CNCC(C)(C)O1    < 10 nM
Cc1cc(Cl)cc(-c2ncnc3cc(CN4C(=O)CC[C@@H]4CF)sc23)c1C[C@@H]1CNCC(C)(C)O1    < 10 nM
Cc1cc(Cl)cc(-c2ncnc3cc(CN4C(=O)CCN(C)C4=O)sc23)c1C[C@@H]1CNCC(C)(C)O1    < 10 nM
Cc1cc(Cl)cc(-c2ncnc3cc(CN4C(=O)C5CC5C4=O)sc23)c1C[C@@H]1CNCC(C)(C)O1 (stereo partly drawn)    < 10 nM
Cc1cc(Cl)cc(-c2ccnc3cc(CN4C(=O)C5CC5C4=O)sc23)c1C[C@@H]1CN[C@@H](C)CO1 (stereo partly drawn)    < 10 nM

# input So what does the record say about IC50 for Cc1cc(Cl)cc(-c2ncnc3cc(CN4C(=O)CCC4=O)sc23)c1C[C@H]1CNCC(C)(C)O1 ?
# output 10 to 100 nM

# input Also check Cc1cc(Cl)cc(-c2ccnc3cc(CN4C(=O)C5C(C4=O)C5(C)C)sc23)c1CC1OCCNC1=O (stereo not drawn)
# output 10 to 100 nM

# input Also check Cc1cc(Cl)cc(-c2ccnc3cc(CN4C(=O)CCC4=O)sc23)c1CN1CC2CCC1CN2 (stereo not drawn)
# output < 10 nM

====

experimental_target: UniProt:Q93009
assay_endpoint: IC50

Observe how each entry below is paired with its result.
CN1CC(=O)N(Cc2cc3ncnc(-c4cc(Cl)cc(Cl)c4CC4CNCC(C)(C)O4)c3s2)C1=O (centres unmarked) [Example 253]    < 10 nM
Cc1cc(Cl)cc(-c2ncnc3cc(Cn4cccc4C#N)sc23)c1C[C@@H]1CNCC(C)(C)O1 [Example 239]    > 100 nM
Cc1cc(Cl)cc(-c2ccnc3cc(CN4C(=O)C5CC5C4=O)sc23)c1CN1C[C@H](C)NC[C@H]1C (some centres unmarked) [Example 37]    < 10 nM
CCN1CCN(Cc2c(C)cc(Cl)cc2-c2ccnc3cc(CN4C(=O)C5C(C4=O)C5(C)C)sc23)[C@@H](C)C1 (some centres unmarked) [Example 24]    < 10 nM
Cc1cc(Cl)cc(-c2ccnc3cc(CN4C(=O)C5CC5C4=O)sc23)c1CN1[C@@H](C)CN(C(C)C)C[C@@H]1C (some centres unmarked) [Example 32]    < 10 nM
Cc1cc(Cl)cc(-c2ncnc3cc(CN4C(=O)C5CC5C4=O)sc23)c1C[C@H]1OCCN[C@@H]1C (some centres unmarked) [Example 160]    < 10 nM
Cc1cc(Cl)cc(-c2ccnc3cc(CN4C(=O)C5CC5C4=O)sc23)c1C[C@@H]1CNCCO1 (some centres unmarked) [Example 123]    < 10 nM
Cc1cc(Cl)cc(-c2ncnc3cc(CN4C(=O)CC[C@@H]4C(F)F)sc23)c1C[C@@H]1CNCC(C)(C)O1 [Example 242]    < 10 nM

# input Form entry - test system: UniProt:Q93009; read-out: IC50; compound: Cc1cc(Cl)cc(-c2ccnc3cc(CN4C(=O)CN(C)C4=O)sc23)c1C[C@@H]1CNCCO1 [Example 126]
# output < 10 nM

# input Also check Cc1cc(Cl)cc(-c2ncnc3cc(CN4C(=O)CCN(CCO)C4=O)sc23)c1C[C@@H]1CNCC(C)(C)O1 [Example 271]
# output < 10 nM

# input Also check Cc1cc(Cl)cc(-c2ccnc3cc(Cn4c(=O)ccn(C)c4=O)sc23)c1CC1CNCCO1 (centres unmarked) [Example 108]
# output < 10 nM

# input Also check Cc1cc(Cl)cc(-c2ncnc3cc(CN4CCCCC4=O)sc23)c1CN1C[C@@H](C)NC[C@@H]1C [Example 82]
# output > 100 nM

# input Also check CCN1CC(=O)N(Cc2cc3ncnc(-c4cc(Cl)cc(C)c4CC4CNCCO4)c3s2)C1=O (centres unmarked) [Example 188]
# output < 10 nM

# input Also check Cc1cc(Cl)cc(-c2ccnc3cc(CN4C(=O)C5CC5C4=O)sc23)c1CN1CCNC(=O)C1C (centres unmarked) [Example 40]
# output 10 to 100 nM

# input Also check Cc1cc(Cl)cc(-c2ncnc3cc(Cn4ccc(=O)[nH]c4=O)sc23)c1C[C@@H]1CNCC(C)(C)O1 [Example 267]
# output < 10 nM

====

pIC50: −log10 of the molar value.
pIC50 tested on USP7 (Homo sapiens, UniProt Q93009): recorded values

Observe how each entry below is paired with its result.
Cc1cc(Cl)cc(-c2ccnc3cc(CN4C(=O)C5C(C4=O)C5(C)C)sc23)c1C[C@@H]1CNCCO1 (stereo partly shown)    > 8.00
Cc1cc(C(F)(F)F)cc(-c2ncnc3cc(CN4C(=O)C5C(C4=O)C5(C)C)sc23)c1CN1CCNC[C@@H]1C (stereo partly shown)    7.00 to 8.00
C[C@H]1CNCCN1Cc1ccc(Cl)cc1-c1ncnc2cc(CN3C(=O)C4CC4C3=O)sc12 (stereo partly shown)    7.00 to 8.00
Cc1cc(Cl)cc(-c2ncnc3cc(CN4C(=O)CCC4=O)sc23)c1C[C@@H]1CNCCO1    > 8.00
C[C@H]1CNC[C@H](C)N1Cc1c(Cl)cc(Cl)cc1-c1ncnc2cc(CN3C(=O)CCC3=O)sc12    > 8.00
C[C@H]1CNC[C@H](C)N1Cc1c(Cl)cc(Cl)cc1-c1ccnc2cc(CN3C(=O)C4CC4C3=O)sc12 (stereo partly shown)    > 8.00

# input Form entry - test system: USP7 (Homo sapiens, UniProt Q93009); read-out: pIC50; molecule: Cc1cc(Cl)cc(-c2ccnc3cc(CN4C(=O)CCC4=O)sc23)c1CN1CCN(C)C[C@@H]1C
# output > 8.00

# input Also check Cc1cc(Cl)cc(-c2ncnc3cc(CN4C(=O)C5CCCCN5C4=O)sc23)c1CC1CNCCO1 (stereo not shown)
# output > 8.00

# input Also check Cc1cc(Cl)cc(-c2ncnc3cc(CN4C(=O)CCC4=O)sc23)c1CN1[C@@H](C)CNC[C@@H]1C
# output > 8.00

# input Also check Cc1cc(Cl)cc(-c2ccnc3cc(CN4C(=O)C5CC5C4=O)sc23)c1CC1CNCC2(CCC2)O1 (stereo not shown)
# output > 8.00

# input Also check C[C@H]1CNCCN1Cc1c(F)cc(F)cc1-c1ncnc2cc(CN3C(=O)C4CC4C3=O)sc12 (stereo partly shown)
# output < 7.00

# input Also check Cc1cc(Cl)cc(-c2ccnc3cc(CN4C(=O)C5CC5C4=O)sc23)c1C[C@H]1OCCN[C@@H]1C (stereo partly shown)
# output > 8.00

# input Also check Cc1cc(Cl)cc(-c2ccnc3cc(CN4C(=O)C5CC5C4=O)sc23)c1CC1CNCCS1 (stereo not shown)
# output > 8.00
